Entries and their relative viability values follow.
System: SK-LMS-1
Assay: relative viability vs DMSO control (72 h) (fraction); higher = more viable cells
Conditions: 0.00457 µM
Write the number on its own, no unit after it.

The following molecules have reported results that may help.
Molecule: CNC(=O)c1nnc(NC(=O)C2CC2)cc1Nc1cccc(-c2ncn(C)n2)c1OC
Value: 1.08

Molecule: Cc1ccc(Nc2nccc(N(C)c3ccc4c(C)n(C)nc4c3)n2)cc1S(N)(=O)=O
Value: 1.06

Molecule: CN1CCN(c2ccc(C(=O)Nc3n[nH]c4ccc(Cc5cc(F)cc(F)c5)cc34)c(NC3CCOCC3)c2)CC1
Value: 1.13

Consider the molecule "CCc1cnn2c(NCc3ccc[n+]([O-])c3)cc(N3CCCC[C@H]3CCO)nc12" and give its recorded relative viability.
1.03

Consider the molecule "CC#CC(=O)N1CCC[C@H]1c1nc(-c2ccc(C(=O)Nc3ccccn3)cc2)c2c(N)nccn12" and give its recorded relative viability.
1.04

Consider the molecule "CO[C@H]1C[C@@H]2CC[C@@H](C)[C@@](O)(O2)C(=O)C(=O)N2CCCC[C@H]2C(=O)O[C@H]([C@H](C)C[C@@H]2CC[C@@H](OCCO)[C@H](OC)C2)CC(=O)[C@H](C)/C=C(\C)[C@@H](O)[C@@H](OC)C(=O)[C@H](C)C[C@H](C)/C=C/C=C/C=C/1C" and give its recorded relative viability.
0.661

Consider the molecule "CCN1C(=O)N(c2c(F)c(OC)cc(OC)c2F)Cc2cnc3[nH]c(CN4CCOCC4)cc3c21" and give its recorded relative viability.
1.08

Consider the molecule O=C1NC(=O)[C@@H](c2cn3c4c(cccc24)CCC3)[C@@H]1c1c[nH]c2ccccc12 [Tivantinib] and give its recorded relative viability.
1

Consider the molecule "CCC(=O)N1CC[C@H](Nc2ncnc3c2CN(c2cnc(OC)c(C(F)(F)F)c2)CC3)C1" and give its recorded relative viability.
1.08
